Assay: in vitro
Details: human
# maps each entry to its CC50 at 3 days

CCCCn1c(=O)c2ccc(OCC(C)(C)O)cc2c2cc(C(O)(C(F)(F)F)C(F)(F)F)ccc21 [NR-32]; > 20 µM
CCCCn1c(=O)c2cc(F)c(OCC(N)=O)cc2c2cc(C(O)(C(F)(F)F)C(F)(F)F)ccc21 [NR-63]; > 20 µM
CCCCn1c(=O)c2ccc(OCC(=O)NC)cc2c2cc(C(O)(C(F)(F)F)C(F)(F)F)ccc21 [NR-97]; > 20 µM
CCCCn1c(=O)c2ccc(OC)cc2c2cc(C(O)(C(F)(F)F)C(F)(F)F)ccc21 [KZ32]; > 20 µM
CCCCn1c(=O)c2cc3c(cc2c2cc(C(O)(C(F)(F)F)C(F)(F)F)ccc21)OC1COCC1O3 (centres unmarked) [NR-84]; > 20 µM
CCCCn1c(=O)c2cc(F)c(OCCN(C)C)cc2c2cc(C(O)(C(F)(F)F)C(F)(F)F)ccc21 [NR-60]; 6.73 µM
CCCCn1c(=O)c2cc(O)ccc2c2cc(C(O)(C(F)(F)F)C(F)(F)F)cc(OC)c21 [NR-19]; > 20 µM
CCCCn1c(=O)c2cc(OC3CCOC3)c(OC3CCOC3)cc2c2cc(C(O)(C(F)(F)F)C(F)(F)F)ccc21 (centres unmarked) [NR-67]; 19 µM
CCCCn1c(=O)c2ccc(OC(CO)CO)cc2c2cc(C(O)(C(F)(F)F)C(F)(F)F)ccc21 [NR-46]; > 20 µM
CCCCn1c(=O)c2cc(OCCO)ccc2c2cc(C(O)(C(F)(F)F)C(F)(F)F)cc(OC)c21 [NR-26]; > 20 µM

Turning now to a further record.
The compound CCCCn1c(=O)c2cc(F)c(OCC(O)CO)cc2c2cc(C(O)(C(F)(F)F)C(F)(F)F)ccc21 (centres unmarked) [NR-82] showed CC50 at 3 days equal to 14.5 µM
